meta.source: patent US9751885B2

In what follows, each item is paired with its pIC50 for MAO-A enzyme (Homo sapiens (Human)).
Where a name gives a salt, the structure may show the parent alone.
Value format note: pIC50 is -log10 of concentration (mol/L); just state the number.

Some compounds with recorded pIC50:
>>> endpoint_value("N[C@@H]1C[C@H]1c1ccc(C(=O)NC2CCCCC2)cc1 (relative stereo) [Example 6, hydrochloride]")
6.49
>>> endpoint_value("N[C@@H]1C[C@H]1c1ccc(C(=O)Nc2cccc(C(F)(F)F)c2)cc1 (relative stereo) [Example 4, hydrochloride]")
6.72

Consider the additional compound presented here.
For the compound O=C(Nc1ccccc1)c1ccc([C@@H]2C[C@H]2NCC2CC2)cc1 (relative stereo) [Example 8, hydrochloride] , the measured pIC50 on MAO-A enzyme (Homo sapiens (Human)) was 5.08

----------
Test: Evaluation of hippocampal distribution in mouse
Assay type: in vivo
Conditions: hippocampus, male ICR mice, 10 mg/kg oral, 1.5 hr after administration, read-out: hippocampus concentration (mean)
Counter-ions that a name gives are not always drawn.
Test readout: concentration at 1.5 h (ng/g)
Quick reminder: number only, in ng/g, skip the unit.

Looking up Cc1nnc(NC(=O)c2cc([C@@H]3C[C@H]3NC3CCC3)ccc2F)s1 (relative stereo) [Example 183, dihydrochloride] , I see its concentration at 1.5 h listed as 884

----------
Target: MAO-A enzyme (Homo sapiens (Human), UniProt P21397)
Sequence (P21397 whole entry): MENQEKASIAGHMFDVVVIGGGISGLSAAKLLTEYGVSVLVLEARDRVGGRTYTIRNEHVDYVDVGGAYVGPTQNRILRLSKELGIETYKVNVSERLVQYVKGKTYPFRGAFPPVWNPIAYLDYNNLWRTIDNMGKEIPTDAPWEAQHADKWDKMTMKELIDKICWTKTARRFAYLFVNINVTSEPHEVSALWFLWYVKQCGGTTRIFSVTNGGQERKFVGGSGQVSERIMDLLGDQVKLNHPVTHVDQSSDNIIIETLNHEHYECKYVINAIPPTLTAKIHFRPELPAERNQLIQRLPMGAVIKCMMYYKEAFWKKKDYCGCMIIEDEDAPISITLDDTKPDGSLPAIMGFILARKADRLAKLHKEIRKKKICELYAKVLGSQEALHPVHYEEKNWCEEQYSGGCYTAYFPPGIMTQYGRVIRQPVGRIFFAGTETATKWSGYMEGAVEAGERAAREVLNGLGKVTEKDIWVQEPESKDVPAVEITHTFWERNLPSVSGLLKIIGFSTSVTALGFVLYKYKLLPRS
Experiment: Measurement of MAO-A inhibitory activity (MAO-Glo Assay)
Type: biochemical
Counter-ions that a name gives are not always drawn.
This listing pairs compounds with measured IC50.

Use these answered entries as a reference point.
>>> endpoint_value("COc1ccccc1CN[C@@H]1C[C@H]1c1ccc(C(=O)NCc2ccccc2)cc1 (relative stereo) [Example 32, trifluoroacetate]")
"> 10 µM"
>>> endpoint_value("Cn1cc(NC(=O)c2ccc([C@@H]3C[C@H]3N)cc2)cn1 (relative stereo) [Example 51, dihydrochloride]")
"0.83 µM"
>>> endpoint_value("N#Cc1cccc(CN[C@@H]2C[C@H]2c2ccc(C(=O)NCc3ccccc3)cc2)c1 (relative stereo) [Example 43, trifluoroacetate]")
"1.5 µM"
>>> endpoint_value("CN(C)c1ccccc1CN[C@@H]1C[C@H]1c1ccc(C(=O)NCc2ccccc2)cc1 (relative stereo) [Example 42, bis(trifluoroacetate)]")
"3.4 µM"
>>> endpoint_value("Cc1cc(NC(=O)c2cccc([C@@H]3C[C@H]3NCC3CCOCC3)c2)no1 (relative stereo)")
"> 10 µM"
>>> endpoint_value("CC(C)(C)n1cc(NC(=O)c2cccc([C@@H]3C[C@H]3NCC3CCOCC3)c2)cn1 (relative stereo) [Example 89, dihydrochloride]")
"> 10 µM"

What the record says about O=C(NCc1cccnc1)c1ccc([C@@H]2C[C@H]2NCC2CC2)cc1 (relative stereo) [Example 18, bis(trifluoroacetate)] : IC50 is > 10 µM

Data point: CC(C)(C)c1ccc(CN[C@@H]2C[C@H]2c2ccc(C(=O)NCc3ccccc3)cc2)cc1 (relative stereo) [Example 31, trifluoroacetate] ; IC50 = 4 µM

The recorded IC50 for entry Cc1ncc(NC(=O)c2cccc([C@@H]3C[C@H]3NCC3CCOCC3)c2)s1 (relative stereo) [Example 90, dihydrochloride] equals > 10 µM

IC50 recorded for this compound, CCN1C(=O)COc2cc(NC(=O)c3cccc([C@@H]4C[C@H]4NCC4CC4)c3)ccc21 (relative stereo) [Example 149, trifluoroacetate] , is > 10 µM

Lab book: IC50 of O=C(Nc1cnn(CC2CC2)c1)c1cccc([C@@H]2C[C@H]2NC2CCC2)c1 (relative stereo) [Example 201, dihydrochloride] noted as > 10 µM

Record O=C(Nc1cnn(CC2CC2)c1)c1cccc([C@@H]2C[C@H]2NC2CCC(F)(F)CC2)c1 (relative stereo) [Example 204, dihydrochloride] . Reported IC50: > 10 µM

The measured IC50 associated with O=C1COc2ccc(CN[C@@H]3C[C@H]3c3ccc(C(=O)NCc4ccccc4)cc3)cc2N1 (relative stereo) [Example 44, trifluoroacetate] reads 1.3 µM

Notebook: Cc1nnc(NC(=O)c2cccc([C@@H]3C[C@H]3NCC(C)(C)C)c2)s1 (relative stereo) [Example 158, dihydrochloride] , IC50 read as > 10 µM

Documented IC50 of CS(=O)(=O)c1ccc(NC(=O)c2cccc([C@@H]3C[C@H]3NCC3CC3)c2)cc1 (relative stereo) [Example 124, trifluoroacetate] : > 10 µM

Record O=C(NCc1ncccc1C(F)(F)F)c1ccc([C@@H]2C[C@H]2NCC2CC2)cc1 (relative stereo) [Example 26, bis(trifluoroacetate)] . Reported IC50: > 10 µM
